observable: melting point

Field: example entries. Status: answers known.
compound: Fc1ccc(Cn2c(NC3CCN(CCNc4nc(-c5ccccc5)cs4)CC3)nc3ccccc32)cc1
melting point: 176 °C

compound: C#Cc1ccnc(-c2ccc(Br)cc2[N+](=O)[O-])c1
melting point: 166 to 171 °C

compound: O=S(=O)(O)c1nc2cc(Cl)c(Cl)cc2[nH]1
melting point: 353 to 354 °C

compound: CC(=O)C1C(C(=O)c2ccc(Br)cc2)CC2C3CCC4=CC(=O)C=CC4(C)C3(F)C(O)CC21C (configuration not stated)
melting point: 285 to 286 °C

compound: CCOC(=O)CSc1ccc(-c2nc3cnccc3[nH]2)cc1
melting point: 230 °C

compound: CCOC(=O)C1CCN(c2cc(-c3ccc(Cl)cc3)nc3ccccc23)CC1
melting point: 124 to 126 °C

compound: CCn1nc2c(N)nc3ccccc3c2c1CCCCOC(C)=O
melting point: 128 to 129 °C

compound: CCCCCCCCCCCCc1ccc(S(=O)(=O)Nc2nnc(CC)s2)cc1
melting point: 93 to 94 °C

Ask: Kindly indicate its recorded melting point. Item: `CCCCCCCCCCCCCCCCNc1ccc(C2=NCCO2)cc1`
Reply: 123 to 125 °C

Ask: Kindly indicate its recorded melting point. Item: `O=C(Cc1cccc2ccccc12)N1CCC(c2nccc3occc23)CC1`
Reply: 50 °C

Ask: Kindly indicate its recorded melting point. Item: `CCOC(=O)CCc1c[nH]c2cnc(-n3cncn3)cc12`
Reply: 129 to 131 °C

Ask: Kindly indicate its recorded melting point. Item: `O=C(O)CSc1nc(-c2ccccc2)ns1`
Reply: 97 °C

Ask: Kindly indicate its recorded melting point. Item: `CCCc1nc2c(N)nc(C)c(C)c2n1CC(C)(C)NS(C)(=O)=O`
Reply: 85 to 93 °C

Ask: Kindly indicate its recorded melting point. Item: `O=C(NC1CC1)c1nccnc1Oc1cccc(C(F)(F)F)c1`
Reply: 74 to 77 °C

Ask: Kindly indicate its recorded melting point. Item: [N-]=[N+]=CC(=O)C(Cc1ccc(F)cc1)NC(=O)OCc1ccccc1 (racemic)
Reply: 97 °C

Ask: Kindly indicate its recorded melting point. Item: `O=[N+]([O-])c1ccc2oc(CCC(F)(F)F)cc2c1`
Reply: 70 to 71 °C

Ask: Kindly indicate its recorded melting point. Item: `O=[N+]([O-])c1cc2c(Nc3ccc(F)c(Cl)c3)ncnc2cc1OCC1CC1`
Reply: 204 °C
